test system: Human peripheral blood mononuclear cells; experiment: Human Concanavalin-A Proliferation Assay (Con HU Assay); assay type: cell-based; settings: Homo sapiens, PBMC, 72 h, concentration 10 μm (in parentheses in the cell); concanavalin-A stimulated human PBMC, 3 days; read-out: % Inhibition of proliferation (at concentrations of 1,10, or 100 μm)
I'd appreciate it if you could supply inhibition at 10 µM values for the items below.
# number only, unit % dropped from output

Query block: Missing value: inhibition at 10 µM, Human peripheral blood mononuclear cells, entry O=C(Nc1ccc(-n2nc(C(F)(F)F)cc2C(F)(F)F)cc1)c1ccsc1 . Fill in?
Result block: 55

Query block: Missing value: inhibition at 10 µM, Human peripheral blood mononuclear cells, entry O=C(Nc1ccc(-n2nc(C(F)(F)F)cc2C(F)(F)F)cc1)c1ccc(C(F)(F)F)cc1C(F)(F)F . Fill in?
Result block: 94

Query block: Missing value: inhibition at 10 µM, Human peripheral blood mononuclear cells, entry O=C(Nc1ccc(-n2nc(C(F)(F)F)cc2C(F)(F)F)cc1)c1ccc(O)cc1 . Fill in?
Result block: 93

Query block: Missing value: inhibition at 10 µM, Human peripheral blood mononuclear cells, entry Cc1ccc(NC(=O)Nc2ccc(-n3nc(C(F)(F)F)cc3C(F)(F)F)cc2)c([N+](=O)[O-])c1 . Fill in?
Result block: 98

Query block: Missing value: inhibition at 10 µM, Human peripheral blood mononuclear cells, entry O=C(Nc1ccc(-n2nc(C(F)(F)F)cc2C(F)(F)F)nc1)c1ccccc1Cl . Fill in?
Result block: 96

Query block: Missing value: inhibition at 10 µM, Human peripheral blood mononuclear cells, entry O=C(Nc1ccc(-n2nc(C(F)(F)F)cc2C(F)(F)F)cc1)c1ccc(O)c(O)c1 . Fill in?
Result block: 100

Query block: Missing value: inhibition at 10 µM, Human peripheral blood mononuclear cells, entry Fc1ccc(NCc2ccc(-n3nc(C(F)(F)F)cc3C(F)(F)F)cc2)cc1 . Fill in?
Result block: 3

Query block: Missing value: inhibition at 10 µM, Human peripheral blood mononuclear cells, entry O=C(Nc1ccc(-n2nc(C(F)(F)F)cc2C(F)(F)F)cc1)c1cncc(Br)c1 . Fill in?
Result block: 100

====

tested on: Human peripheral blood mononuclear cells; assay: Human Concanavalin-A Proliferation Assay (Con HU Assay); assay type: cell-based; details: concentration 1 μm (in parentheses in the cell); concanavalin-A stimulated human PBMC, 3 days
Measured Property: % Inhibition of proliferation (at concentrations of 1,10, or 100 μm)

Query block: Need % Inhibition of proliferation (at concentrations of 1,10, or 100 μm) of O=C(CCCC[C@@H]1SC[C@@H]2NC(=O)N[C@@H]21)Nc1ccc(-n2nc(C(F)(F)F)cc2C(F)(F)F)cc1 , thanks.
Result block: 4(1) %

Query block: Need % Inhibition of proliferation (at concentrations of 1,10, or 100 μm) of Cc1ccc([N+](=O)[O-])cc1NC(=O)Nc1ccc(-n2nc(C(F)(F)F)cc2C(F)(F)F)cc1 , thanks.
Result block: 2(1) %

Query block: Need % Inhibition of proliferation (at concentrations of 1,10, or 100 μm) of O=C(CCCNC(=O)OCc1ccccc1)Nc1ccc(-n2nc(C(F)(F)F)cc2C(F)(F)F)cc1 , thanks.
Result block: 30(1) %

Query block: Need % Inhibition of proliferation (at concentrations of 1,10, or 100 μm) of CC1(C)C(C(=O)Nc2ccc(-n3nc(C(F)(F)F)cc3C(F)(F)F)cc2)C1(C)C , thanks.
Result block: 1(1) %

Query block: Need % Inhibition of proliferation (at concentrations of 1,10, or 100 μm) of CC(C(=O)Nc1ccc(-n2nc(C(F)(F)F)cc2C(F)(F)F)cc1)c1ccc(C(=O)c2cccs2)cc1 (stereo not drawn) [Example 178] , thanks.
Result block: 14(1) %

Query block: Need % Inhibition of proliferation (at concentrations of 1,10, or 100 μm) of CC(=O)Nc1ccc(-n2nc(C(F)(F)F)cc2C(F)(F)F)cc1 , thanks.
Result block: 16(1) %

Query block: Need % Inhibition of proliferation (at concentrations of 1,10, or 100 μm) of CC(C(=O)Nc1ccc(-n2nc(C(F)(F)F)cc2C(F)(F)F)cc1)c1ccc(C(=O)c2cccs2)cc1 (stereo not drawn) [Example 177] , thanks.
Result block: 4(1) %

Query block: Need % Inhibition of proliferation (at concentrations of 1,10, or 100 μm) of O=C(Nc1ccc(-n2nc(C(F)(F)F)cc2C(F)(F)F)cc1)c1cnccn1 , thanks.
Result block: 48(1) %

Query block: Need % Inhibition of proliferation (at concentrations of 1,10, or 100 μm) of CC(C)(C)OC(=O)NCCCC(=O)Nc1ccc(-n2nc(C(F)(F)F)cc2C(F)(F)F)cc1 , thanks.
Result block: 28(1) %

From: patent US20010044445A1
